Quick reference: fold induction at 48 h, 0.5 µM of the listed items.
measurement target: CYP1A1 (Mus musculus)
Sequence (P00184 whole entry): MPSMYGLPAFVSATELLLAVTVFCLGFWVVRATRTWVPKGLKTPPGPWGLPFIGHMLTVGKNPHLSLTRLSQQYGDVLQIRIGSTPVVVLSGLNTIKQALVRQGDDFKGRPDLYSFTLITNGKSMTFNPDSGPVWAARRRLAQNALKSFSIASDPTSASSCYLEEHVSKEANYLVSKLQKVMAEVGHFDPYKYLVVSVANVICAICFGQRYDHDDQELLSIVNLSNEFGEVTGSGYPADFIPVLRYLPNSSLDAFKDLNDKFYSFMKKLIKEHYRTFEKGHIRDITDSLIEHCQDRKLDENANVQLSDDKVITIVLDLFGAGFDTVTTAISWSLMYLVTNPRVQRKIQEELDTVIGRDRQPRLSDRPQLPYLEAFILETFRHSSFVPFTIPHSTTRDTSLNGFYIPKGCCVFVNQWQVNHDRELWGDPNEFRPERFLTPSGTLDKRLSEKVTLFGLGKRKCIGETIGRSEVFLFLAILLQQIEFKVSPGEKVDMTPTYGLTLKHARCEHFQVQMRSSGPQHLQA
experiment: Induction of CYP1A1 activity in mouse Hepa-1c1c7 cells assessed as induction ratio at 0.5 uM after 48 hrs by EROD assay relative to control
Assay type: ADME, cell-based
// return just the number, without any unit appended

Look over these answered cases.
COc1ccc(/C=C2/C(=O)Nc3ccccc32)cc1O : 2.66
COc1cccc(/C=C2/C(=O)Nc3cc(OC)ccc32)c1 : 1.13
COc1ccc2c(c1)NC(=O)/C2=C/c1cccc(C(F)(F)F)c1 : 1.36
COc1ccc(/C=C2/C(=O)Nc3cc(F)ccc32)cc1O : 2.05

Here is the next item to consider.
Look up CYP1A1 (Mus musculus) data: fold induction at 48 h, 0.5 µM of `O=C1Nc2ccccc2/C1=C\c1cccc(Cl)c1` , then report it.
1.21
